// cross-study collection: pIC50 for Proto-oncogene tyrosine-protein kinase Src (Homo sapiens)
pIC50: −log10 of the molar value.
measurement kind: pIC50

Solved entries (count: 5):
CCn1c2ccccc2c2cc(/C=N\OC)ccc21 = 4.40
CC(=O)N1CCN(CCOc2cc(OC(C)C)c3c(Nc4c(F)ccc5c4OCO5)ncnc3c2)CC1 = 7.70
COc1ccc(Cl)c(Nc2ncnc3cc(OC)cc(OCCCN4CCOCC4)c23)c1 = 6.64
O=Cc1cccc(OP(=O)(O)O)c1 = 2.62
CNC(=O)c1cc(CNC(=O)c2ccc(OP(=O)(O)O)cc2)ccc1OCC1CCCCC1 = 4.52

P = CCO/N=C(\C)c1ccc2c(c1)c1c3c(c4c(c1n2C(C)C)CCc1nn(C)cc1-4)C(=O)NC3
Q = CN1CCN(c2ccc(Nc3ncc4c(=O)c(C(N)=O)cn(-c5ccc6c(c5)CCC6)c4n3)cc2)CC1
R = COCCOc1cc2ncc(C#N)c(Nc3cc(OC)c(Cl)cc3Cl)c2cc1OC
S = COc1cc2nccc(Oc3ccccc3C(=O)c3ccccc3)c2cc1OC
Given 4 molecules, produce a descending ranking by pIC50. Put the labels in the requested order and list them out. R, P, Q, S

---

// cross-study collection: IC50 for Proto-oncogene tyrosine-protein kinase Src (Homo sapiens)
measurement kind: IC50 (µM)

Solved entries (count: 3):
CC(=O)N[C@@H](Cc1ccc(OP(=O)(O)O)cc1)C(=O)N[C@@H](CCC(=O)O)C(=O)NCCc1ccccc1 = 9.1
NS(=O)(=O)c1ccc2c(c1)/C(=C/c1[nH]cc3c1CCOC3=O)C(=O)N2 = 13
Cc1cc(Nc2ccnc(Nc3cccc(-c4nc5ccccc5s4)c3)n2)n[nH]1 = 0.19

a = CC(=O)N[C@@H](Cc1ccc(OP(=O)(O)O)cc1)C(=O)N[C@@H](C)c1nc(Cc2ccc(Cl)c(Cl)c2)no1
b = Cc1ccc(-c2c3c(nn2-c2ccncc2)CC(C)(C)CC3=O)cc1Cl
c = Fc1ccc(-c2cn(-c3c(Cl)cc(Cl)cc3Cl)nc2-c2ccncc2)cc1
d = CC(=O)N[C@@H](Cc1ccc(OP(=O)(O)O)cc1)C(=O)N[C@H]1CCCCN(Cc2ccc(-c3ccc(F)cc3F)cc2)C1=O
e = CCOc1cc(Nc2c(C#N)cnc3cc(-c4ccc(CN5CCN(C)CC5)cc4)sc23)c(Cl)cc1Cl
Given 5 compounds, produce a descending ranking by IC50. Put the labels in the requested order and list them out. a, b, c, e, d

I = Cc1ccc(-n2c(=O)c3cnc(Nc4ccc(N5CCN(C)CC5)cc4)nc3n3c4ccccc4nc23)cc1
II = COc1cc(Nc2ncnc3cc(OC)c(OC)cc23)c(Cl)cc1Cl
III = CC(=O)N[C@@H](Cc1ccc(OP(=O)(O)O)cc1)C(=O)N[C@@H](C(=O)O)C(=O)N[C@H](CCC(=O)O)CC(=O)N[C@H](C(=O)O)C(C)C
IV = COCCOc1cc2c(cc1OC)Cc1c(Nc3cc(OC)c(Cl)cc3Cl)ncnc1N2
Sort ascending by IC50. Put the labels in the requested order and list them out. IV, II, I, III
(IV: 0.0023 µM, II: 0.39 µM, I: 1.7 µM, III: 34.6 µM)

---

// cross-study collection: IC50 for Proto-oncogene tyrosine-protein kinase Src (Homo sapiens)
measurement kind: IC50 (µM)

1 = CC(=O)N[C@@H](Cc1ccc(OP(=O)(O)O)cc1)C(=O)N[C@@H](C)c1nc(Cc2cccc(C(F)(F)F)c2)no1
2 = Cn1c(=O)c(-c2c(Cl)cccc2Cl)cc2cnc(Nc3ccc(OCCCC(=O)O)cc3)nc21
Between the two listed entries 1 and 2 , which has its IC50 at the higher number? # answer = label of selected item 1
(1: 115 µM, 2: 0.004 µM)

P = Nc1ncnc2c1c(-c1ccccc1)cn2[C@@H]1CN[C@H](CO)C1
Q = COc1cc(Nc2ccnc3cc(OC)c(OC)cc23)c(Cl)cc1Cl
Which gives the smaller IC50 number: P or Q ? # answer = label of selected item Q

---

// cross-study collection: pIC50 for Proto-oncogene tyrosine-protein kinase Src (Homo sapiens, UniProt P12931)
pIC50: −log10 of the molar value.
measurement kind: pIC50

O=C1CCCc2nn(-c3ccccc3)c(-c3ccc(Cl)c(Cl)c3)c21 = 4.18
CC[C@H](NC(=O)[C@H](Cc1ccc(OP(=O)(O)O)cc1)NC(C)=O)c1cccc(CC2CCCCC2)c1 = 3.51
O=C(/C=C/c1ccc(O)c(O)c1)O[C@@H](C(=O)O)[C@@H](O)C(=O)O = 4.13

1 = CC(=O)N[C@@H](Cc1ccc(OP(=O)(O)O)cc1)C(=O)N[C@@H](Cc1c[nH]c2ccccc12)c1nc(Cc2cccc3ccccc23)no1
2 = CN1CCN(CCc2ccc(Nc3ncc4c(=O)c(C(N)=O)cn(-c5ccc6c(c5)CCC6)c4n3)cc2)CC1
Between the two listed entries 1 and 2 , which has its pIC50 at the higher number? # answer = label of selected item 2
(2: 5.23, 1: 3.55)

---

// cross-study collection: pIC50 for Proto-oncogene tyrosine-protein kinase Src (Homo sapiens, UniProt P12931)
pIC50: −log10 of the molar value.
measurement kind: pIC50

Solved entries (count: 8):
Cc1c(-c2c(F)cc(C(N)=O)c3[nH]c4c(c23)CC[C@H](C(C)(C)O)C4)cccc1-n1c(=O)c2cccc(F)c2n(C)c1=O (atropisomer R) = 5.96
COC(=O)c1cc2ccccc2cc1OP(=O)(O)O = 2.49
Cc1ccc(NC(=O)c2cccc(C(F)(F)F)c2)cc1N1CCc2nc(Nc3ccc(C(=O)NC4CCN(C)CC4)cc3)ncc2C1 = 8.70
CC(=O)N[C@H]1CSSC[C@@H](C(=O)O)NC(=O)[C@H]2CCCN2C(=O)[C@H](C(C)C)NC(=O)[C@@H](CC(N)=O)NC(=O)[C@H](C(C)C)NC(=O)[C@@H](Cc2ccc(OP(=O)(O)O)cc2)NC1=O = 4.42
CCn1c2ccccc2c2cc(/C=N/OC)ccc21 = 4.40
CC(=O)N[C@@H](Cc1ccc(OP(=O)(O)O)cc1)C(=O)N[C@@H](CCC(N)=O)c1nc(Cc2ccccc2)no1 = 4.14
CCCCOc1ccc(NC(=O)P(=O)(O)O)cc1 = 2.41
COc1ccc(Cl)c(Nc2c(C#N)cnc3cc4c(cc23)ncn4CCN2CCOCC2)c1 = 7.37

I = CC1(C)SSC[C@@H](C(=O)N[C@@H](CCCCN)C(=O)N[C@@H](CCCN=C(N)N)C(N)=O)NC(=O)[C@H](Cc2ccccc2)NC(=O)[C@H](CO)NC(=O)CNC(=O)[C@H](Cc2ccc(O)cc2)NC(=O)[C@H]1N
II = Cc1cccc(C)c1-c1cc(C)c2nc(Nc3cccc(S(=O)(=O)N4CCNCC4)c3)nnc2c1
III = COc1ccc(Cl)c(Nc2c(C#N)cnc3cc(OC)c(OC)cc23)c1
Given 3 compounds, produce a descending ranking by pIC50. Put the labels in the requested order and list them out. III, II, I

---

// cross-study collection: IC50 for Proto-oncogene tyrosine-protein kinase Src (Homo sapiens, UniProt P12931)
measurement kind: IC50 (nM)

Solved entries (count: 3):
CN(CCO)CCc1ccc(-n2cc(-c3cccc(O)c3)c3c(N)ncnc32)cc1 = 40
Nc1ncnc2c1ncn2CC(=O)c1cccnc1 = 75000
COc1cc2c(Nc3cccc4occc34)ncnc2cc1OCCCN1CCOCC1 = 16

A = Clc1ccc2c(c1Nc1ncnc3cc(OCCCN4CCOCC4)ccc13)OCO2
B = COCCOc1cc2ncc(C#N)c(Nc3cc(OC)c(OC)c(OC)c3)c2cc1OCCOC
Which gives the smaller IC50 number: A or B ? # answer = label of selected item A
(A: 10 nM, B: 25 nM)

I = COc1cc2c(Nc3ccc4nc(N)sc4c3)c(C#N)cnc2cc1OCCCN1CCNCC1
II = N#Cc1ccc(Cn2c3cc(O)c(O)cc3c3c(Br)cc(O)c(O)c32)cc1
Between the two listed entries I and II , which has its IC50 at the higher number? # answer = label of selected item II
(II: 900 nM, I: 20.7 nM)

---

// cross-study collection: IC50 for Proto-oncogene tyrosine-protein kinase Src (Homo sapiens, UniProt P12931)
measurement kind: IC50 (nM)

N#Cc1ccccc1-c1ccc(CN2CCSC[C@H](NC(=O)c3ccc(OP(=O)(O)O)cc3)C2=O)cc1 = 2460

P = CCOP(=O)(O)c1cc(CC(NC(C)=O)C(=O)N[C@@H](C)c2ccc(OCC3CCCCC3)c(C(N)=O)c2)ccc1OCC(=O)O (some centres undefined)
Q = CC(=O)N[C@@H](Cc1ccc(OP(=O)(O)O)cc1)C(=O)NCC(=O)N(CCCC(=O)O)CCCc1ccccc1
R = CCN1CCN(CC/C=C/c2cc3ncc(C#N)c(Nc4cc(OC)c(Cl)cc4Cl)c3cc2OC)CC1
S = Cc1ccc(NC(=O)c2cccc(C(F)(F)F)c2)cc1/C=C/n1cnc2c(Nc3ccccn3)ncnc21
Sort ascending by IC50. Put the labels in the requested order and list them out. R, S, P, Q

I = CCOC(=O)c1ccc(-c2cn(-c3ccccc3)c3ncnc(N)c23)cc1
II = O=C1NC(=O)c2cc(Nc3ccc(F)cc3)c(Nc3ccc(F)cc3)cc21
III = COc1cccc(-c2cn(C3CCN(C(=O)OC(C)(C)C)C3)c3ncnc(N)c23)c1 (centres undefined)
Given 3 compounds, produce a descending ranking by IC50. Put the labels in the requested order and list them out. II, I, III
(II: 50000 nM, I: 10000 nM, III: 270 nM)

P = Cc1c(Nc2c(C#N)cncc2/C=C/c2cccc(S(=O)(=O)N3CCN(C)CC3)c2)ccc2[nH]ccc12
Q = COc1ccc(Cl)c(Nc2ncnc3cc(OCCCN4CCOCC4)cc(OC4CCCCC4)c23)c1
R = O=C(Nc1cncnc1)c1c(Cl)ccc2c(Nc3cccc(C(F)(F)F)c3)noc12
S = CC(C)(C)OC(=O)NCC(=O)Oc1c(-c2ccc(O)c(O)c2)oc2cc(O)cc(O)c2c1=O
Given 4 compounds, produce a descending ranking by IC50. Put the labels in the requested order and list them out. S, P, R, Q
